System: Caco-2
Assay: cell viability relative to DMSO; higher = less toxic
Details: 72 h; 1 nM
Readings of cell viability for the listed compounds
Enter your answer as a number in %; do not include the unit.

Study these solved cases before continuing.
{"compound": "CC(C)(Sc1ccc(CCN(CCCCC2CCCCC2)C(=O)NC2CCCCC2)cc1)C(=O)O", "cell viability [%]": 87.7}
{"compound": "O=C(Nc1ccccc1C(=O)Nc1ccc(CCO)cc1)c1ccc([N+](=O)[O-])cc1", "cell viability [%]": 94}
{"compound": "CCCc1cc(C(N)=S)ccn1 [protionamide]", "cell viability [%]": 94.4}
{"compound": "O[C@@H](CN1CCNCC1)Cn1c2ccc(Br)cc2c2cc(Br)ccc21", "cell viability [%]": 100}
{"compound": "CCCC(C)C1(CC)C(=O)NC(=S)NC1=O (centres undefined)", "cell viability [%]": 100}

We next turn to a different compound, shown below.
Form: compound = `CS(=O)(=O)c1ccc(-c2cnc(NCc3ccco3)n3cnnc23)cc1` ; cell viability = 95.7
